assay: Pharmacokinetics in celiac disease patients, Part C; assay type: in vivo, human; conditions: human, in vivo; Day 8, mean, IMU-856 80 mg
measurement.type: Cmax at 192 h (ng/mL)
API: value field is a number in ng/mL; no unit string.

INPUT: Cmax at 192 h for "Cn1c(COc2cc(C(F)(F)F)ccn2)nnc1[C@H]1CC[C@H](c2cnn([C@H]3CC[C@H](N4CC5(CCO5)C4)CC3)c2)CC1" ?
OUTPUT: 354

====

test: Pharmacokinetics in celiac disease patients, Part C; format: in vivo, human; conditions: human, in vivo; Day 8, mean, IMU-856 160 mg; read-out: AUC0-t last
measurement.type: AUC(0-t) at 192 h (ng·h/mL)
API: value field is a number in ng·h/mL; no unit string.

INPUT: AUC(0-t) at 192 h for "Cn1c(COc2cc(C(F)(F)F)ccn2)nnc1[C@H]1CC[C@H](c2cnn([C@H]3CC[C@H](N4CC5(CCO5)C4)CC3)c2)CC1" ?
OUTPUT: 3610

Taken from patent US20260294885A1.
